Origin of measurements: patent US20090054471A1

UniProt:P00533 IC50 data
Sequence (P00533 669-1210 limits assumed): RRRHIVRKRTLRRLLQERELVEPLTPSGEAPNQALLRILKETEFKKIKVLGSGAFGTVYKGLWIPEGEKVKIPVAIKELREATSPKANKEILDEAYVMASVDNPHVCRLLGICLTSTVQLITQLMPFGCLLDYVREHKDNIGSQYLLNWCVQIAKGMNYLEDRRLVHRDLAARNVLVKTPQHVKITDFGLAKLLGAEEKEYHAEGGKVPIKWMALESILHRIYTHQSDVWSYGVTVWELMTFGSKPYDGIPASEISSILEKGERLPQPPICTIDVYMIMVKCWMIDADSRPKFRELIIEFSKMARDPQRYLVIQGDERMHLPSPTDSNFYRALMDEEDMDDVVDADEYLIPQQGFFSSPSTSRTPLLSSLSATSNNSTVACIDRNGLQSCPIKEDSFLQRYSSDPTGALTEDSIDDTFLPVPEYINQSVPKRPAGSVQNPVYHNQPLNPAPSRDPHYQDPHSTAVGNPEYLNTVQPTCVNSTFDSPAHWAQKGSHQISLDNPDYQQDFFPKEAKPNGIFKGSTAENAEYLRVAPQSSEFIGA
property_name: IC50

compound_structure=Nc1ncnc2nn3ccccc3c12 system=UniProt:P00533 property_name=IC50 measured="> 10 µM"
compound_structure=O=C(Nc1ccc(C(F)(F)F)cc1)Nc1ncnc2nn3ccccc3c12 system=UniProt:P00533 property_name=IC50 measured="> 10 µM"
compound_structure=O=C(Nc1cccc([N+](=O)[O-])c1)Nc1ncnc2nn3ccccc3c12 system=UniProt:P00533 property_name=IC50 measured="> 10 µM"
compound_structure=N#Cc1cccc(NC(=O)Nc2ncnc3nn4ccccc4c23)c1 system=UniProt:P00533 property_name=IC50 measured="> 10 µM"
